# System: human PCSK9 protein
# Experiment: Protein ELISA: titers of vaccine-induced PCSK9-specific antibodies in plasma of immunized mice
# Format: in vivo, BALB/c mice
# Condition parameters: mean titer, n=5 BALB/c mice/group; s.c. 4 x 15 μg net peptide coupled to KLH, Alhydrogel; plasma 2 weeks after final injection; titer = serum dilution at 50% ODmax
Collected titers against huPCSK9 (ODmax/2) values appear next to each entry.

[
  {
    "Substance": "42 (PEEDGSRFHMQASK) [compound 42]",
    "Assay system": "human PCSK9 protein",
    "titers against huPCSK9 (ODmax/2)": 18599
  },
  {
    "Substance": "35 (PEEDGTRFHSQASK) [compound 35]",
    "Assay system": "human PCSK9 protein",
    "titers against huPCSK9 (ODmax/2)": 29223
  },
  {
    "Substance": "7 (PEEDGTRFHRQAAK) [compound 7]",
    "Assay system": "human PCSK9 protein",
    "titers against huPCSK9 (ODmax/2)": 15676
  },
  {
    "Substance": "45 (PEEDGSRFHRRATK) [compound 45]",
    "Assay system": "human PCSK9 protein",
    "titers against huPCSK9 (ODmax/2)": 11097
  },
  {
    "Substance": "4 (PEEDGTRFARQASK) [compound 4]",
    "Assay system": "human PCSK9 protein",
    "titers against huPCSK9 (ODmax/2)": 21494
  },
  {
    "Substance": "30 (PEEDGTRFTRQASK) [compound 30]",
    "Assay system": "human PCSK9 protein",
    "titers against huPCSK9 (ODmax/2)": 9519
  },
  {
    "Substance": "26 (PEWDGTRFHRQASK) [compound 26]",
    "Assay system": "human PCSK9 protein",
    "titers against huPCSK9 (ODmax/2)": 840
  },
  {
    "Substance": "34 (PEEDGTRFHPQASK) [compound 34]",
    "Assay system": "human PCSK9 protein",
    "titers against huPCSK9 (ODmax/2)": 20318
  },
  {
    "Substance": "38 (PEEDGTRFHRQASS) [compound 38]",
    "Assay system": "human PCSK9 protein",
    "titers against huPCSK9 (ODmax/2)": 31481
  },
  {
    "Substance": "20 (PEEDGTRFHRQATK) [compound 20]",
    "Assay system": "human PCSK9 protein",
    "titers against huPCSK9 (ODmax/2)": 10813
  },
  {
    "Substance": "37 (PEEDGTRFHRQTSK) [compound 37]",
    "Assay system": "human PCSK9 protein",
    "titers against huPCSK9 (ODmax/2)": 25826
  },
  {
    "Substance": "13 (PEEDGTRFHQQASK) [compound 13]",
    "Assay system": "human PCSK9 protein",
    "titers against huPCSK9 (ODmax/2)": 18490
  },
  {
    "Substance": "10 (PQEDGTRFHRQASK) [compound 10]",
    "Assay system": "human PCSK9 protein",
    "titers against huPCSK9 (ODmax/2)": 29228
  }
]
